Molecular target: Grb2 SH2 (UniProt P62993)
Test: SH2 binding enrichment of the phosphorylated peptide, bacterial display (enrichment ratio); higher = better substrate or ligand; peptides without Tyr show the background;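 also: peptide library displayed on the E. coli surface as eCPX fusions, selected cells deep-sequenced, score is each peptide's frequency after selection divided by its frequency in the input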
endpoint: SH2 binding enrichment

Worked examples follow.
FLNSIYKSRDE [ROS1_Y2227] : 1
KLPFLYDDPFS [GPX2_Y127_P126L_YF] : 0.846
IVRSRYEDLED [VHL_Y185_L184R] : 0.897
SLLTDCSPQLQ [OTC_Y345_Y345C] : 0.975
VIGRMYDFHVL [RPF2_Y109_YF] : 1.05
RKEAQYMLENE [SLC16A6_Y224] : 0.8
VVFIKYLPEWT [PSEN1_Y240_L235V] : 1.64
IYHLSYIHNCE [PDE6B_Y227_L228I] : 1.35

1 = FSQNIYIQNRN [PKP2_Y631_YF]
2 = SQETYYRVSNM [ABCD1_Y181_Q178E]
3 = VFPIDYFFPPQ [AR_Y552_L548F_YF]
Q: Please give the order of these sequences when sorted by SH2 binding enrichment, largest value leading. Provide your answer as the labels ordered per the instruction.
Ans: 3, 1, 2

Source of measurements: the supplement of paper PMC10065799
